TARGET UNDER TEST: T1, Claudin 18.2 (CLDN18.2), expressed on CHOS-CLDN 18.2 / HEK293-CLDN 18.2 / HCC827-CLDN 18.2 cells (human, UniProt P56856-2 1-261)
T1 construct: whole, on cells; The species is not repeated for the CHOS-CLDN 18.2 cells; also called claudin-18A2
TEST SUMMARY: FACS, CHOS-CLDN18.2 cells, 0.078 µg/ml
QUANTITY MEASURED: FACS reading
Answer with the value's number alone.

Past entries and their recorded results:
BINDER	FACS reading
QP14361435 (antibody, human IgG1, kappa, V domains shown, Humanized from QP190191) VH: EVQLVESGGGLVKPGGSLRLSCAASGFTFSNYAMSWVRQAPGKGLEWVSSIISGGRTYYLDSEKGRFTISRDNAKNSLYLQMNSLRAEDTAVYYCTRIYYGNSFDYWGQGTLVTVSS VL: DIVMTQSPDSLAVSLGERATISCKSSQSLLNSGNQKNYLTWYQQKPGQPPKLLIYWASTRESGVPDRFTGSGSGTDFTLTISSLQAEDVAVYYCQNDYSYPFTFGQGTKLEIKR	23600
QP190191 (antibody, human IgG1, V domains shown, Chimeric; also called 36A2; mouse-derived chimeric antibody QP190191) VH: EVKLVESGGGLVKPGGSLKLSCAASGFTFSNYAMSWVRQTPEKRLEWVASIISGGRTYYLDSEKGRFTISRDNARNNLYLQMSSLRSEDTAMYYCTRIYYGNSFDYWGQGTTLTVSS VL: DIVMTQSPSSQTVTAGEKVTMSCKSSQSLLNSGNQKNYLTWYQQKPGQPPKLLIYWASTRESGVPDRFTGSGSGTDFTLTISNMQAEDLAVYYCQNDYSYPFTFGSGTKLEIK	15700
QP14371433 (antibody, human IgG1, kappa, V domains shown, Humanized from QP190191; also called QP14331437) VH: EVQLVESGGGLVKPGGSLRLSCAASGFTFSNYAMSWVRQAPGKGLEWVASIISGGRTYYLDSEKGRFTISRDNAKNSLYLQMNSLRAEDTAVYYCTRIYYGNSFDYWGQGTLVTVSS VL: DIVMTQSPDSLAVSLGERATINCKSSQSLLNSGNQKNYLTWYQQKPGQPPKLLIYWASTRESGVPDRFSGSGSGTDFTLTISSLQAEDVAVYYCQNDYSYPFTFGQGTKLEIKR	17700
QP14371435 (antibody, human IgG1, kappa, V domains shown, Humanized from QP190191) VH: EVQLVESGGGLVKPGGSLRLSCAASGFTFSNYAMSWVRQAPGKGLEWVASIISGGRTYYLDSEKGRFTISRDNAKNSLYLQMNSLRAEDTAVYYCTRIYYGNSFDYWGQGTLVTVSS VL: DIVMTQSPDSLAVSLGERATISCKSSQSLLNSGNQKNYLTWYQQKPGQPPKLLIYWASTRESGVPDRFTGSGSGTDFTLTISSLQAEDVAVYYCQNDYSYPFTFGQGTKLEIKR	18000

Moving on to another binder below.
**Query** // Input: QP024025 (antibody, human IgG1, V domains shown, also called IMAB362; 175D10(IMAB362)) VH: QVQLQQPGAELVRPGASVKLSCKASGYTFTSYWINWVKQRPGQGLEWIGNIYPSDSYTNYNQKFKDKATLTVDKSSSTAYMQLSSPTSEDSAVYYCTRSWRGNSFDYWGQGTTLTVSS VL: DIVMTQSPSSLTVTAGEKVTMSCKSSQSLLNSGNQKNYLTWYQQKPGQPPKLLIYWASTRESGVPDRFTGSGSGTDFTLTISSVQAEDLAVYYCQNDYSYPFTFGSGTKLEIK . Output its FACS reading only.
**Result** 18200
